measured on: human galectin-1 (Gal-1, full length) (Homo sapiens)
Construct: Gal-1 is a prototype galectin consisting of a single CRD and was used in full length; 6xHis tag with TEV protease site (N, cleaved yes); made in house; host or cells: BL21 Escherichia coli (pET-15b)
Sequence (P09382 2-135): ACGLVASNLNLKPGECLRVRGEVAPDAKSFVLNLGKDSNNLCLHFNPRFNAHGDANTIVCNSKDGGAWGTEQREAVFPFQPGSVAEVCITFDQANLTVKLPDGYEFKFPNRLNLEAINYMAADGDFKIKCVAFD
method: Competitive fluorescence polarization assay, Gal-1
Assay type: binding
setup conditions: CSV supplement, unrounded mean; read-out: Gal1_Kd_mean_uM
pKd: −log10 of the molar value.
property name: pKd

compound: CO[C@@H]1O[C@H](CO)[C@@H](O[C@@H]2O[C@H](CO)[C@H](O)[C@H](O)[C@H]2O)[C@H](O)[C@H]1O [β-LacOMe, methyl β-lactoside, reference compound]
pKd: 3.11

I. CC(=O)N(c1ccc(F)c(F)c1)[C@@H]1O[C@H](CO)[C@@H](O[C@@H]2O[C@H](CO)[C@H](O)[C@H](O)[C@H]2O)[C@H](O)[C@H]1O
II. CC(=O)N(c1cc(O)cc(C(=O)O)c1)[C@@H]1O[C@H](CO)[C@@H](O[C@@H]2O[C@H](CO)[C@H](O)[C@H](O)[C@H]2O)[C@H](O)[C@H]1O
[in] Choose between I and II : whose measured pKd value is numerically larger? Pick one and reply with its label.
[out] I
